Data credit: patent US20250147039A1

For each record, write down the corresponding conversion to 1,5-cz-[Ln(Lig)], Sm^III.
Assay: Formation of 1,5-cz-[Ln(Lig)] from Lig and Ln^III ions (metal dependent click-zip), MOPS/NaOH buffer pH 7.0, analytical HPLC (Charts 1, 2)
Conditions: Sm^III; after 1 week at 80° C.; MOPS/NaOH buffer pH 7.0
Numbers only, in %.

Answered cases to consult:
Prompt: Which conversion to 1,5-cz-[Ln(Lig)], Sm^III value is on record for C#Cc1cccc(CN2CCN(CC(=O)NCC(=O)O)CCN(Cc3cc(-c4ccccc4)cc(CN=[N+]=[N-])n3)CCN(CC(=O)NCC(=O)O)CC2)n1 ?
Completion: 1

Prompt: Again, but for C#Cc1cccc(CN2CCN(CP(=O)(O)OCC)CCN(Cc3cccc(CN=[N+]=[N-])n3)CCN(CP(=O)(O)OCC)CC2)n1
Completion: 86

Prompt: Again, but for C#Cc1cccc(CN2CCN(CC(=O)O)CCN(Cc3cc(C(=O)OC)cc(CN=[N+]=[N-])n3)CCN(CC(=O)O)CC2)n1
Completion: 0

Prompt: Again, but for CC(C)(C#Cc1cccc(CN2CCN(CC(=O)O)CCN(Cc3cccc(CN=[N+]=[N-])n3)CCN(CC(=O)O)CC2)n1)NC(=O)OC(C)(C)C
Completion: 1

Prompt: Again, but for C#Cc1cccc(CN2CCN(CC(=O)O)CCN(Cc3cc(-c4ccccc4)cc(CN=[N+]=[N-])n3)CCN(CC(=O)O)CC2)n1
Completion: 86

From here, focus on the item given below.
Prompt: Which conversion to 1,5-cz-[Ln(Lig)], Sm^III value is on record for [N-]=[N+]=NCc1cccc(CN2CCN(CC(=O)O)CCN(Cc3cccc(C#CI)n3)CCN(CC(=O)O)CC2)n1 ?
Completion: 4

----------
For each record, write down the corresponding conversion to 1,5-cz-[M(Lig)], Sc^III.
Experiment: Formation of 1,5-cz-[M(Lig)] from Lig and M^III ions (metal dependent click-zip) (Charts 4, 5)
Format: physicochemical
Conditions: 1 hour at 80° C.; MOPS/NaOH buffer pH 7.0; TD728, TD827 in 50% i-PrOH
Answers are plain numbers, in %.

Prompt: Which conversion to 1,5-cz-[M(Lig)], Sc^III value is on record for C#CCNC(=O)CN1CCN(CC(=O)O)CCN(Cc2cc(-c3ccccc3)cc(CN=[N+]=[N-])n2)CCN(CC(=O)O)CC1 ?
Completion: 0

Prompt: Again, but for C#Cc1cccc(CN2CCN(CC(=O)O)CCN(Cc3cc(-c4ccccc4)cc(CN=[N+]=[N-])n3)CCN(CC(=O)O)CC2)n1
Completion: 7

Prompt: Again, but for C#Cc1cccc(CN2CCN(CP(=O)(O)OCC)CCN(Cc3cccc(CN=[N+]=[N-])n3)CCN(CP(=O)(O)OCC)CC2)n1
Completion: 0

Report conversion to 1,5-cz-[M(Lig)], Sc^III for every entry below.
1. [N-]=[N+]=NCc1cccc(CN2CCN(CC(=O)O)CCN(Cc3cccc(C#CC45CC6CC(CC(C6)C4)C5)n3)CCN(CC(=O)O)CC2)n1
2. C#Cc1cccc(CN2CCN(CC(=O)O)CCN(Cc3cc(C(F)(F)F)cc(CN=[N+]=[N-])n3)CCN(CC(=O)O)CC2)n1
3. C#Cc1cccc(CN2CCN(CC(=O)O)CCN(Cc3cc(C(=O)OC)cc(CN=[N+]=[N-])n3)CCN(CC(=O)O)CC2)n1
4. C#CCN(CC#C)CCN1CCN(CC(=O)O)CCN(Cc2cc(-c3ccccc3)cc(CN=[N+]=[N-])n2)CCN(CC(=O)O)CC1

Completion:
1. 0
2. 1
3. 1
4. 0

----------
For each record, write down the corresponding fraction of intact chelate.
Test: Dissociation of chelates in aq. 6.0M HCl at 80° C. (acid decomplexation kinetic inertness) (Chart 17)
Assay type: physicochemical
Conditions: 1 hour
One number for each entry, in %.

Answered cases to consult:
Prompt: Which fraction of intact chelate value is on record for O=C1C[N@@]2CC[N@]3CC[N@@](CC[N@](CC2)Cc2cccc(n2)-c2cnnn2Cc2cc(-c4ccccc4)cc(n2)C3)CC(=O)[O][Ce][O]1 [TD870] ?
Completion: 0

Prompt: Again, but for NCc1nnn2c1-c1cccc(n1)C[N@]1CC[N@]3CC[N@@](CC[N@@](CC1)CC(=O)[O][Lu][O]C(=O)C3)Cc1cc(-c3ccccc3)cc(n1)C2 [TD735]
Completion: 100

Report fraction of intact chelate for every entry below.
1. O=C([O-])CN1CCN2CCN(CC(=O)[O-])CCN(CC1)Cc1cccc(n1)-c1cnnn1Cc1cc(-c3ccccc3)cc(n1)C2.[Pb+2] [TD876]
2. O=C1C[N@@]2CC[N@]3CC[N@@](CC[N@](CC2)Cc2cccc(n2)-c2cnnn2Cc2cc(-c4ccccc4)cc(n2)C3)CC(=O)[O][Y][O]1 [TD649]
3. O=C1CN2CCN3CCN(CCN(CC2)Cc2cccc(n2)-c2cnnn2Cc2cccc(n2)C3)CP(=O)(O)[O][Lu][O]1 [TD734]
4. O=C1C[N@@]2CC[N@]3CC[N@@](CC[N@](CC2)Cc2cccc(n2)-c2cn(nn2)Cc2cc(-c4ccccc4)cc(n2)C3)CC(=O)[O][Cd][O]1 [TD900]

Completion:
1. 0
2. 98
3. 100
4. 0

----------
For each record, write down the corresponding fraction of intact chelate.
Assay: Dissociation of chelates in aq. 6.0M HCl at 80° C. (acid decomplexation kinetic inertness) (Chart 17)
Type: physicochemical
Conditions: 1 month

Prompt: Which fraction of intact chelate value is on record for O=C1C[N@@]2CC[N@]3CC[N@@](CC[N@](CC2)Cc2cccc(n2)-c2cnnn2Cc2cc(-c4ccccc4)cc(n2)C3)CC(=O)[O][Yb][O]1 [TD602] ?
Completion: 90%

Prompt: Again, but for O=C1C[N@@]2CC[N@]3CC[N@@](CC[N@](CC2)Cc2cccc(n2)-c2cnnn2Cc2cc(-c4ccccc4)cc(n2)C3)CC(=O)[O][Sm][O]1 [TD867]
Completion: 0%

Prompt: Again, but for O=C1CN2CCN3CCN(CCN(CC2)Cc2cccc(n2)-c2cnnn2Cc2cccc(n2)C3)CP(=O)(O)[O][Lu][O]1 [TD734]
Completion: 95%

Prompt: Again, but for O=C1C[N@@]2CC[N@]3CC[N@@](CC[N@](CC2)Cc2cccc(n2)-c2cnnn2Cc2cc(-c4ccccc4)cc(n2)C3)CC(=O)[O][Dy][O]1 [TD866]
Completion: 0%

Prompt: Again, but for O=C1C[N@@]2CC[N@]3CC[N@@](CC[N@](CC2)Cc2cccc(n2)-c2cnnn2Cc2cc(-c4ccccc4)cc(n2)C3)CC(=O)[O][Ho][O]1 [TD648]
Completion: 0%

Report fraction of intact chelate for every entry below.
1. O=C1C[N@@]2CC[N@]3CC[N@@](CC[N@](CC2)Cc2cccc(n2)-c2cnnn2Cc2cc(-c4ccccc4)cc(n2)C3)CC(=O)[O][Ce][O]1 [TD870]
2. O=C1C[N@@]2CC[N@]3CC[N@@](CC[N@](CC2)Cc2cccc(n2)-c2cnnn2Cc2cc(-c4ccccc4)cc(n2)C3)CC(=O)[O][Lu][O]1 [TD522]

Completion:
1. 0%
2. 98%

----------
Assay: Alkali metal dependent formation of 1,5-cz-Lig and 1,4-cz-Lig isomers from Lig at pH 10.2 (Chart 14)
Assay type: physicochemical
Conditions: B: 1 day at 80° C.; Borate/(M^I)2CO3 buffer pH 10.2; visible analyte free precipitate
If the reported conversion to 1,5-cz-Lig isomer, Li^I equals or exceeds 10%, assign Yes. If not, assign No.

Use these answered entries as a reference point.
Prompt: Quick check, conversion to 1,5-cz-Lig isomer, Li^I >= 10%? C#Cc1cccc(CN2CCN(CC(=O)O)CCN(Cc3cccc(CN=[N+]=[N-])n3)CCN(CP(=O)(O)O)CC2)n1 [TD714]
Completion: Yes

Prompt: Again, but for C#Cc1cccc(CN2CCNCCN(Cc3cccc(CN=[N+]=[N-])n3)CCN(CC(=O)O)CC2)n1 [TD703]
Completion: Yes

Prompt: Again, but for C#Cc1cccc(CN2CCN(CC(=O)O)CCN(Cc3cc(-c4ccccc4)cc(CN=[N+]=[N-])n3)CCN(CC(=O)O)CC2)n1 [TD647]
Completion: No

---
Prompt: Quick check, conversion to 1,5-cz-Lig isomer, Li^I >= 10%? C#Cc1cccc(CN2CCN(CP(=O)(O)c3ccccc3)CCN(Cc3cccc(CN=[N+]=[N-])n3)CCN(CP(=O)(O)c3ccccc3)CC2)n1 [TD921]
Completion: Yes

Prompt: Again, but for C#Cc1cccc(CN2CCN(CP(=O)(O)OCC)CCN(Cc3cccc(CN=[N+]=[N-])n3)CCN(CP(=O)(O)OCC)CC2)n1 [TD582]
Completion: Yes

Prompt: Again, but for C#CCNC(=O)CN1CCN(CC(=O)O)CCN(Cc2cc(-c3ccccc3)cc(CN=[N+]=[N-])n2)CCN(CC(=O)O)CC1 [TD425]
Completion: No
